System: Rattus norvegicus
Assay: Acute in vivo activity measured by total plasma cholesterol concentration levels (TC) at 30 mg/kg dose
Assay type: functional
YES means recorded Delta TC is -30% or above; NO means it is below -30%.

> print(dat)
                                    compound  assigned.category
 1  CC(C)c1cc(Br)cc(C(C)C)c1OC(=O)NS(=O)(=O)Oc1c(C(C)C)cccc1C(C)C                YES
 2  CC(C)c1cccc(C(C)C)c1OS(=O)(=O)NC(=O)Sc1c(C(C)C)cccc1C(C)C                YES
 3  CC(C)c1cccc(C(C)C)c1OC(=O)NS(=O)(=O)Oc1c(F)cccc1F                YES
 4  Cc1cccc(C)c1OC(=O)NS(=O)(=O)Oc1c(C(C)C)cccc1C(C)C                 NO
 5  CCCCCCCCCCCCOS(=O)(=O)NC(=O)Sc1c(C(C)C)cccc1C(C)C                YES
 6  CC(C)c1cccc(C(C)C)c1OS(=O)(=O)NC(=O)OC1[C@H](C(C)C)CCC[C@H]1C(C)C (relative stereo)                 NO
 7  CC(C)(C)c1cccc(C(C)(C)C)c1OC(=O)NS(=O)(=O)Oc1c(C(C)(C)C)cccc1C(C)(C)C                YES
 8  CCCCCCCCCCCCOS(=O)(=O)NC(=O)Oc1c(C(C)(C)C)cc(C)cc1C(C)(C)C                 NO
 9  CCCCCCCCCCCCOC(=O)NS(=O)(=O)Oc1c(C(C)C)cccc1C(C)C                 NO
10  COc1cc(C(C)C)c(OC(=O)NS(=O)(=O)Oc2c(C(C)C)cccc2C(C)C)c(C(C)C)c1                 NO

Source listed as ChEMBL document CHEMBL1129522.
